target: human IL-1β (human, UniProt P01584 117-269); experiment: cell-based or functional assay
readoutLabel: ND50 (nM)
Reply numerically in nM, unit not repeated.

In one line, give reported ND50 of the entry ABT2-65-502 (other) VH: EVQLLESGGGLVQPGGSLRLSCVASGFTFEDYQMGWVRQAPGKGLEWVSSVSAMGNRTYYADSVKGRFTISRDGSKNTLYLQMNSLRAEDTAVYYCAQNLVRLGRSRWMFDYWGQGTLVTVSS .
2

In one line, give reported ND50 of the entry ABT2-65-163 (other) VH: EVQLLESGGGLVQPGGSLRLSCVASGFTFEDYQMGWVRQAPGKGLEWVSSISAMGGRTYYADSVKGRFTISRDDSKNTLYLQMNSLRAEDTAVYYCAQNLVRLGRSRWMFDYWGQGTLVTVSS .
2

In one line, give reported ND50 of the entry ABT2-65-154 (other, VH dAb) VH: EVQLLESGGGLVQPGGSLRLSCAASGFTFEDYQMGWVRQAPGKGLEWVSSISAMGNRTHYADSVKGRFTISRDDSKNTLYLQMNSLRAEDTAVYYCAQNLVRIRRTKWMFDYWGQGTLVTVSS .
1.5

In one line, give reported ND50 of the entry ABT2-65-7 (other, VH dAb) VH: EVQLLESGGGLVQPGGSLRLSCAASGFTFEDYQMGWVRQAPGKGLEWVSSISATGNRTYYADSVKGRFTISRDDSKNTLYLQMNSLRAEDTAVYYCAQNLVRTRIKMWMFDYWGQGTLVTVSS .
200

In one line, give reported ND50 of the entry ABT2-65-48 (other, VH dAb) VH: EVQLLESGGGLVQPGGSLRLSCAASGFTFEDYQMGWVRQAPGKGLEWVSSISAMGNRTYYADSVKGRFTISRDDSKNTLYLQMNSLRAEDTAVYYCAKWQMRTQSKLGYFDYWGQGTLVTVSS .
80
